System: Mannose-6-phosphate isomerase (Homo sapiens) (UniProt P34949)
Sequence (P34949 whole entry, looked up): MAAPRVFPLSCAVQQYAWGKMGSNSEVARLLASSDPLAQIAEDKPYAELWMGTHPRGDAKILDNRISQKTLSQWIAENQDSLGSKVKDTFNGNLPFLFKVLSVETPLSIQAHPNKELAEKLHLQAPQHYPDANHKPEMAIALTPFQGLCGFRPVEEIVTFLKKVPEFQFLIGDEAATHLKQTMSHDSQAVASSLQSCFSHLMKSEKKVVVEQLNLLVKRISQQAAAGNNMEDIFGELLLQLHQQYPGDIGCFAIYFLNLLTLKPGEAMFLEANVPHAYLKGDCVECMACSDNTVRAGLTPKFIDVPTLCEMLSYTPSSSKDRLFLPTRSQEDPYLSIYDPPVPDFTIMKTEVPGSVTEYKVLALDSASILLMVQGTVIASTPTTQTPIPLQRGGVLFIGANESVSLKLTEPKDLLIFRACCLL
Procedure summary: MPI inhibition at elevated mannose 6-phosphate – biochemical, fluorescence intensity, high mannose 6-phosphate, primary screen (AID 1220)
Condition notes: recombinant PMI enzyme, coupled fluorescence intensity; at 20 µM; active compounds read high
In all, about 190,000 compounds went through this assay and about 1,300 (0.68%) were called active. The sample holds actives, similar compounds and a random draw of the others, so the mix is not that of the screen.
Quantity: inhibition (%)
The reply should be a number in %, with the unit left off.

A selection of reference data follows.
> print(dat)
                                    compound    quantity  result
 1  CCOc1cc(NC(=S)NCC2CCCO2)c(OCC)cc1NC(=O)c1ccccc1 (stereo not given)  inhibition    17.7
 2  CCOc1cc(NC(=S)NCC2CCCO2)c(OCC)cc1NC(=O)c1ccc(C)cc1 (stereo not given)  inhibition    58.2
 3        CCN(CC)c1ccc(C=Nc2ccc(C)cc2)c(O)c1  inhibition      57
 4  CCOc1ccc2nc(NS(=O)(=O)c3ccc4c(c3)n(C)c(=O)n4C)sc2c1  inhibition     -21
 5            Cc1oc(/N=C/c2ccccc2O)c(C#N)c1C  inhibition   -16.8
 6  O=C(Nc1cccc(N=Cc2cc(Cl)cc(Br)c2O)c1)c1ccco1  inhibition    44.4
 7      CCOC(=O)c1cc2c(ccn2C)n1Cc1ccc(Cl)cc1  inhibition    52.4
 8  CCOc1cc(NC(=S)NCC2CCCO2)c(OCC)cc1NC(=O)CC (stereo not given)  inhibition     6.9
 9  CCOC(=O)c1cc2c(ccn2C)n1CC(=O)N1CCCC(C)C1 (stereo not given)  inhibition     7.2
10  O=C(Nc1ccc(S(=O)(=O)Nc2ccc(F)cc2)cc1)c1ccc(CN2CCOCC2)cc1  inhibition      17

Test item COc1cc(C(=O)NCCSc2ccc(Br)cc2)cc(OC)c1OC ; Mannose-6-phosphate isomerase (Homo sapiens) (UniProt P34949); reported inhibition was 5.3

The reported Mannose-6-phosphate isomerase (Homo sapiens) (UniProt P34949) inhibition of CCOC(=O)Cc1csc(NC(=O)CSc2nnc(-n3nc(C)cc3C)c3ccccc23)n1 is 6.3
